attribute measured: melting point

Please report the recorded melting point for "Oc1c(Cl)c(F)nc(F)c1Cl" . 102 to 104 °C

Do the same for "COc1ccc(Br)c(C(=O)O)c1N" please 139 to 141 °C

# iterate: "CCOc1nc(Cl)ncc1Br" 72 to 74 °C

# iterate: CNC(=O)NC(=O)C(C)Cl (stereo unspecified) 118 to 120 °C

// repeat for "O=[N+]([O-])c1cc(S(=O)(=O)N2CCCC2)ccc1Cl" and report 96 to 100 °C

Lookup "COc1ccc(SCC(=O)O)cc1" 77 to 79 °C

Now this one: "Cc1cc(N)ccc1N1CCSCC1" 67 to 69 °C

Now give it for "O=C(O)c1cc2c(OC(F)F)cccc2[nH]1" too. 215 to 217 °C

Note, next up: "Cc1ccccc1C1(C(=O)O)CCOCC1" 170 to 172 °C

Item: "O=C(O)c1ccc(Oc2ccc(Br)cc2)c(F)c1" 251 to 253 °C

And the next one, "O=C(c1ccc(Br)cc1)c1ccco1" ? 63 to 65 °C

Follow-up entry: Nc1ccc(S(=O)C(F)F)cc1 (stereo unspecified) 83 to 85 °C

Another molecule to check: "Sc1nc(-c2cccnc2)no1" 179 to 181 °C

Param item: "NC(=O)COc1ccc(C(=O)O)cc1" 273 to 275 °C

// same read-out, input: "O=C(O)c1ccc(NC(=O)c2ccccn2)cc1" 263 to 265 °C

Also "COCc1nc(C)c(C(=O)O)s1" , if possible. 159 to 161 °C

And then "NNC(=S)NC1CC1" , what is it? 100 to 102 °C

How about "CN(C)c1nc2sc(C(=O)O)cc2s1" ? 205 to 207 °C

Would you kindly repeat that for "Cc1ccc2[nH]c(C(=O)O)cc2c1" ? 218 to 220 °C

Another: "O=C(CCl)N(Cc1ccc(F)cc1)C12CC3CC(CC(C3)C1)C2" 129 to 131 °C

Do the same for "O=C(CC(F)(F)F)c1ccccc1" please 37 to 39 °C

# repeat for "O=c1[nH]c(CCl)nc2ccsc12" 190 to 193 °C

Please give the result for "Oc1ccc(OC2CCCCC2)cc1" too. 63 to 65 °C

// repeat for "CCOC(=O)Nc1ccc(N)cc1" and report 73 to 75 °C

Would you mind doing "Nc1ccc(Oc2cc(Cl)ccc2Cl)c(F)c1" as well? 62 to 64 °C

And then "O=C(O)c1cc([N+](=O)[O-])ccc1Sc1nnnn1-c1ccccc1" , what is it? 218 to 220 °C

And for "C=CC(=O)Nc1cc(F)cc(F)c1" ? 155 to 157 °C

Another molecule to look at: "O=C(c1ccncc1)c1cc(F)ccc1F" 53 to 55 °C

How about "COc1ccccc1C=NO" ? 86 to 88 °C

Please answer likewise for COc1ccc(C2C(C(N)=O)CCC(=O)N2C)cc1 (stereo unspecified) 220 to 222 °C

Queued: "O=C(CCl)Nc1cccc(Cl)c1" 70 to 72 °C

And the next one, "Clc1cc(NCC2CC2)ncn1" ? 98 to 100 °C

// same read-out, input: N#CC(N)c1cnn(-c2ccccc2)c1 (stereo unspecified) 98 to 100 °C

"CN(C)c1ncc(Br)cc1C(=O)O" , same question. 143 to 145 °C

Likewise for "Oc1nnc2c(Cl)cccn12" ? 269 to 271 °C

Then CC1(c2ccc(S(C)(=O)=O)cc2)CO1 (stereo unspecified) ? 96 to 98 °C

Next molecule: "O=C(O)c1sccc1S(=O)(=O)NCc1cccs1" 138 to 140 °C

Lookup O=C(CCCl)N(c1ccccc1)C1C=CS(=O)(=O)C1 (stereo unspecified) 122 to 124 °C

Could you do the same for CC(Oc1ccc(Cl)cc1)C(=O)O (stereo unspecified) , please? 111 to 113 °C

One more molecule: "COc1ccc(/C=C/C(=O)O)cc1S(=O)(=O)N(C)C" 229 to 231 °C

Try this molecule next: "Cc1sc2ccccc2c1S(=O)(=O)Cl" 117 to 119 °C

Next: O=C1C(Br)CCN1c1cccc(Cl)c1 (stereo unspecified) 89 to 91 °C

What would you report for "COC(=O)c1ccncc1O" ? 149 to 151 °C

# repeat for "O=C1C=CC=NC1=C(O)Nc1cccnc1" 120 to 122 °C

Thanks! And "O=Cc1ccc(-c2nn(-c3ccccc3)cc2C=O)o1" ? 146 to 148 °C

How about this molecule: O=C(NC1CC1)C(Cl)c1ccccc1 (stereo unspecified) 128 to 130 °C

Subsequent entry: "CCNc1nnc(S)s1" 141 to 143 °C

Next molecule up: "COc1cccc(-n2c(CC(=O)NN)csc2=NCc2ccco2)c1" 151 to 153 °C

Could you do the same for "Nc1c(Cl)cc(Cl)c2c1N=S=N2" , please? 176 to 178 °C

Next record, please: NC(=O)NC(CC(=O)O)c1ccc(Cl)cc1 (stereo unspecified) 198 to 200 °C

Would you kindly repeat that for COC(=O)C(F)c1nc2ccccc2c(=O)[nH]1 (stereo unspecified) ? 147 to 160 °C

Same question, "CCOC(=O)c1c(NC(=O)CCl)sc(C(C)=O)c1C" this time 176 to 178 °C

And "CN(c1ccccc1)S(=O)(=O)c1ccccc1C(=O)O" ? 136 to 138 °C

Can you handle "Cc1nsc(N)c1C(=O)O" next? 158 to 160 °C

And then "O=C(O)CN1C(=O)CCCc2ccccc21" , what is it? 141 to 143 °C

Can you check CC(Cl)C(=O)Nc1ccccc1Cc1ccccc1 (stereo unspecified) next? 144 to 146 °C

Source: a melting point compilation (Tetko et al.)
